Would you mind telling me the reported IC50 of each entry?
Target: Δ^5 -isomerase/3β-hydroxysteroid dehydrogenase (Rattus norvegicus, UniProt P22071)
Sequence (P22071 1-373): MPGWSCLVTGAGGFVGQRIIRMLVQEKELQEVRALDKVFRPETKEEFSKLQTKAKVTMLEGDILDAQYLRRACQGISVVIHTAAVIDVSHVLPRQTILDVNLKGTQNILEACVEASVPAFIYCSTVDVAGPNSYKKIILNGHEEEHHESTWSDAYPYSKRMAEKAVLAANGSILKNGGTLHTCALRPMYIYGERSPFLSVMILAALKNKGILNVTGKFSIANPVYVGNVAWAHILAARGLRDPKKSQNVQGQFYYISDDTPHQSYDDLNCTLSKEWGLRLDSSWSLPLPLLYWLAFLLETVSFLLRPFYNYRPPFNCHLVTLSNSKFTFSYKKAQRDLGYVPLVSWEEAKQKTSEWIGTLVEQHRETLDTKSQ
Assay: Inhibition of the formation of progesterone in vitro (14C-pregnenolone, rat ovary microsomes)
Settings: 0.5 μg protein, 250 pmol 14C-pregnenolone, 0.4 mg NAD+, 30 minutes, 37° C., pH 7.4, read-out: IC50 (concentration of the test substance at which the enzyme activity amounts to 50% of the maximum value)
Give bare numbers, in nM.

Example entries and their recorded answers appear below.
molecule: CC1(C)C2=CC[C@H]3[C@@H]4CC=C[C@H](O)[C@@]4(C)CC[C@@H]3[C@@]2(C)Cc2cn[nH]c21
targetOrTestSystem: Δ^5 -isomerase/3β-hydroxysteroid dehydrogenase (Rattus norvegicus, UniProt P22071)
valueReported: 0.8

molecule: CCCCC1(O)C=CCC2C3CC=C4C(C)(C)c5[nH]ncc5CC4(C)C3CCC21C (stereo not shown)
targetOrTestSystem: Δ^5 -isomerase/3β-hydroxysteroid dehydrogenase (Rattus norvegicus, UniProt P22071)
valueReported: 6

molecule: C[C@]1(O)C=CC[C@H]2[C@@H]3CC[C@@]45O[C@]4(C)C(=O)[C@H](C#N)C[C@]5(C)[C@H]3CC[C@@]21C
targetOrTestSystem: Δ^5 -isomerase/3β-hydroxysteroid dehydrogenase (Rattus norvegicus, UniProt P22071)
valueReported: 7

Now look at this entry.
Consider the molecule CC(=O)O[C@H]1C=CC[C@H]2[C@@H]3CC=C4C(C)(C)c5nn(C(C)=O)cc5C[C@]4(C)[C@H]3CC[C@]12C and give its recorded IC50. 6

* * *

tested on: pregnant female albino rats; experiment: Interceptive activity in rats (pregnant rats, serum progesterone, living foetuses, resorptions, vacant implantation positions); type: in vivo, rat; settings: 7.5 mg/kg, orally or intramuscularly on 10th day; killed on 15th day
metricName: Living foetuses, n (number of animals)
Answers are plain numbers.

Example entries and their recorded answers appear below.
smilesStructure: CC1(C)C2=CC[C@@H]3[C@H](CC[C@@]4(C)[C@H]3CCC[C@]4(C)O)[C@@]2(C)Cc2cnoc21
valueReported: 4
//
smilesStructure: CC1(C)C(=O)[C@H](C#N)C[C@@]2(C)C1=CC[C@@H]1[C@@H]2CC[C@@]2(C)[C@H]1CC=C[C@]2(C)O
valueReported: 0
//
smilesStructure: CC1(C)C(=O)C(=CNO)C[C@@]2(C)C1=CC[C@@H]1[C@@H]2CC[C@@]2(C)[C@H]1CC=C[C@]2(C)O
valueReported: 3
//
smilesStructure: CC1(C)C2=CC[C@@H]3[C@H](CC[C@@]4(C)[C@H]3CC=C[C@]4(C)O)[C@@]2(C)Cc2cnoc21
valueReported: 0

Now look at this entry.
Consider the compound CC1(C)C(=O)[C@H](C#N)C[C@@]2(C)C1=CC[C@@H]1[C@@H]2CC[C@@]2(C)[C@H]1CCC[C@]2(C)O and give its recorded Living foetuses, n (number of animals). 1

* * *

system: pregnant female albino rats; assay: Interceptive activity in rats (pregnant rats, serum progesterone, living foetuses, resorptions, vacant implantation positions); format: in vivo, rat; settings: 7.5 mg/kg, orally or intramuscularly on 10th day; killed on 15th day
Would you mind telling me the reported Resorption, n (number of animals) of each entry?
One number for each entry.

Example entries and their recorded answers appear below.
molecule: CC1(C)C2=CC[C@@H]3[C@H](CC[C@@]4(C)[C@H]3CCC[C@]4(C)O)[C@@]2(C)Cc2cnoc21 [Example 3]
valueReported: 5
//
molecule: CC1(C)C2=CC[C@@H]3[C@H](CC[C@@]4(C)[C@H]3CC=C[C@]4(C)O)[C@@]2(C)Cc2cnoc21 [Example 2]
valueReported: 0
//
molecule: CC1(C)C(=O)[C@H](C#N)C[C@@]2(C)C1=CC[C@@H]1[C@@H]2CC[C@@]2(C)[C@H]1CC=C[C@]2(C)O [Example 17]
valueReported: 2
//
molecule: CC1(C)C(=O)[C@H](C#N)C[C@@]2(C)C1=CC[C@@H]1[C@@H]2CC[C@@]2(C)[C@H]1CCC[C@]2(C)O [Example 14]
valueReported: 3

Consider the molecule CC1(C)C(=O)C(=CNO)C[C@@]2(C)C1=CC[C@@H]1[C@@H]2CC[C@@]2(C)[C@H]1CC=C[C@]2(C)O [Example 21] and give its recorded Resorption, n (number of animals). 6

* * *

test system: pregnant female albino rats; assay: Interceptive activity in rats (pregnant rats, serum progesterone, living foetuses, resorptions, vacant implantation positions); assay type: in vivo, rat; details: 15 mg/kg, orally or intramuscularly on 10th day; killed on 15th day
Would you mind telling me the reported Vacant implantation positions, x (mean of the observations) of each entry?
Answers are plain numbers.

molecule: CC1(C)C2=CC[C@@H]3[C@H](CC[C@@]4(C)[C@H]3CC=C[C@]4(C)O)[C@@]2(C)Cc2cnoc21 [Example 2]
valueReported: 12

molecule: CC1(C)C(=O)[C@H](C#N)C[C@@]2(C)C1=CC[C@@H]1[C@@H]2CC[C@@]2(C)[C@H]1CCC[C@]2(C)O [Example 14]
valueReported: 13

molecule: CC1(C)C(=O)[C@H](C#N)C[C@@]2(C)C1=CC[C@@H]1[C@@H]2CC[C@@]2(C)[C@H]1CC=C[C@@]21CCC(=O)O1 [Example 19]
valueReported: 13

Can you give me Vacant implantation positions, x (mean of the observations) for all of these, one by one?
1. CC1(C)C(=O)C(=CNO)C[C@@]2(C)C1=CC[C@@H]1[C@@H]2CC[C@@]2(C)[C@H]1CC=C[C@]2(C)O [Example 21]
2. CC1(C)C2=CC[C@@H]3[C@H](CC[C@@]4(C)[C@H]3CCC[C@]4(C)O)[C@@]2(C)Cc2cnoc21 [Example 3]

13
13

* * *

target: Δ^5 -isomerase/3β-hydroxysteroid dehydrogenase (Rattus norvegicus, UniProt P22071); experiment: Inhibition of the formation of progesterone in vitro (14C-pregnenolone, rat ovary microsomes); settings: 0.5 μg protein, 250 pmol 14C-pregnenolone, 0.4 mg NAD+, 30 minutes, 37° C., pH 7.4, read-out: IC50 (concentration of the test substance at which the enzyme activity amounts to 50% of the maximum value)
Would you mind telling me the reported IC50 of each entry?
In your response, the unit should come after the numeric value.

compound: CC1(C)C(=O)[C@H](C#N)C[C@@]2(C)C1=CC[C@@H]1[C@@H]2CC[C@@]2(C)[C@H]1CC=C[C@]2(C)O [Example 17]
targetOrTestSystem: Δ^5 -isomerase/3β-hydroxysteroid dehydrogenase (Rattus norvegicus, UniProt P22071)
metricName: IC50
valueReported: 6.5 nM
--
compound: CC(=O)OC1=C(C#N)C[C@]2(C)[C@H]3CC[C@]4(C)[C@@H](OC(C)=O)C=CC[C@H]4[C@@H]3CC[C@]23O[C@H]13 [Example 22]
targetOrTestSystem: Δ^5 -isomerase/3β-hydroxysteroid dehydrogenase (Rattus norvegicus, UniProt P22071)
metricName: IC50
valueReported: 0.9 nM

Now look at this entry.
GET IC50 where system = Δ^5 -isomerase/3β-hydroxysteroid dehydrogenase (Rattus norvegicus, UniProt P22071) and item = CC1(C)C2=CC[C@@H]3[C@H](CC[C@@]4(C)[C@H]3CC=C[C@]4(C)O)[C@@]2(C)Cc2cn[nH]c21 [Example 6] 0.4 nM
